- Test Protocol: in vitro
- Details: Chlorocebus aethiops (African green monkey)
# CC50 at 24 h per record follows
Readout Type: CC50 at 24 h

- Compound: "O=C1C(=Cc2cn(CCCOc3cc(C(F)(F)F)nc4ccccc34)c3ccccc23)SC(=S)N1CCc1ccccc1 (mixture of isomers) [9a]"
  Reported Value: "210 µg/mL"
- Compound: "Cc1ccc2nc(C(F)(F)F)cc(OC/C=C/Cn3cc(C=C4SC(=S)N(CCc5ccccc5)C4=O)c4ccccc43)c2c1 (mixture of isomers) [10b]"
  Reported Value: "290 µg/mL"
- Compound: "O=C1C(=Cc2cn(CCCOc3cc(C(F)(F)F)nc4ccc(Cl)cc34)c3ccccc23)SC(=S)N1CCc1ccccc1 (mixture of isomers) [9b]"
  Reported Value: "227 µg/mL"
- Compound: "O=C1C(=Cc2cn(C/C=C/COc3cc(C(F)(F)F)nc4ccccc34)c3ccccc23)SC(=S)N1CCc1ccccc1 (mixture of isomers) [10a]"
  Reported Value: "370 µg/mL"
- Compound: "Cc1ccc2nc(C(F)(F)F)cc(OCCCCn3cc(C=C4SC(=S)N(CCc5ccccc5)C4=O)c4ccccc43)c2c1 (mixture of isomers) [9g]"
  Reported Value: "591 µg/mL"
- Compound: "Cc1ccc2nc(C(F)(F)F)cc(OCCCn3cc(C=C4SC(=S)N(CCc5ccccc5)C4=O)c4ccccc43)c2c1 (mixture of isomers) [9c]"
  Reported Value: "310 µg/mL"

----------
- Compound: "O=C1C(=Cc2cn(CCCCCCOc3cc(C(F)(F)F)nc4ccc(Cl)cc34)c3ccccc23)SC(=S)N1CCc1ccccc1 (mixture of isomers) [9j]"
  melting point: "184 to 186 °C"
- Compound: "O=C1C(=Cc2cn(CCCCOc3cc(C(F)(F)F)nc4ccccc34)c3ccccc23)SC(=S)N1CCc1ccccc1 (mixture of isomers) [9d]"
  melting point: "157 to 159 °C"
- Compound: "Cc1ccc2nc(C(F)(F)F)cc(OCCCn3cc(C=C4SC(=S)N(CCc5ccccc5)C4=O)c4ccccc43)c2c1 (mixture of isomers) [9c]"
  melting point: "182 to 184 °C"
- Compound: "O=C1C(=Cc2cn(CCCOc3cc(C(F)(F)F)nc4ccccc34)c3ccccc23)SC(=S)N1CCc1ccccc1 (mixture of isomers) [9a]"
  melting point: "185 to 187 °C"
- Compound: "O=C1C(=Cc2cn(CCCOc3cc(C(F)(F)F)nc4ccc(Cl)cc34)c3ccccc23)SC(=S)N1CCc1ccccc1 (mixture of isomers) [9b]"
  melting point: "176 to 179 °C"
- Compound: "O=C1C(=Cc2cn(C/C=C/COc3cc(C(F)(F)F)nc4ccccc34)c3ccccc23)SC(=S)N1CCc1ccccc1 (mixture of isomers) [10a]"
  melting point: "179 to 181 °C"
- Compound: "O=C1C(=Cc2cn(CCCCCCOc3cc(C(F)(F)F)nc4ccc(F)cc34)c3ccccc23)SC(=S)N1CCc1ccccc1 (mixture of isomers) [9i]"
  melting point: "185 to 187 °C"
- Compound: "Cc1ccc2nc(C(F)(F)F)cc(OCCCCCCn3cc(C=C4SC(=S)N(CCc5ccccc5)C4=O)c4ccccc43)c2c1 (mixture of isomers) [9k]"
  melting point: "148 to 150 °C"
- Compound: "O=C1C(=Cc2cn(CCCCCCOc3cc(C(F)(F)F)nc4ccccc34)c3ccccc23)SC(=S)N1CCc1ccccc1 (mixture of isomers) [9h]"
  melting point: "180 to 182 °C"
- Compound: "Cc1ccc2nc(C(F)(F)F)cc(OC/C=C/Cn3cc(C=C4SC(=S)N(CCc5ccccc5)C4=O)c4ccccc43)c2c1 (mixture of isomers) [10b]"
  melting point: "168 to 170 °C"
- Compound: "O=C1C(=Cc2cn(CCCCOc3cc(C(F)(F)F)nc4ccc(F)cc34)c3ccccc23)SC(=S)N1CCc1ccccc1 (mixture of isomers) [9e]"
  melting point: "160 to 162 °C"
- Compound: "O=C1C(=Cc2cn(CCCCOc3cc(C(F)(F)F)nc4ccc(Cl)cc34)c3ccccc23)SC(=S)N1CCc1ccccc1 (mixture of isomers) [9f]"
  melting point: "181 to 183 °C"
- Compound: "Cc1ccc2nc(C(F)(F)F)cc(OCCCCn3cc(C=C4SC(=S)N(CCc5ccccc5)C4=O)c4ccccc43)c2c1 (mixture of isomers) [9g]"
  melting point: "175 to 177 °C"
